Data provenance: patent US9273057B2

# Experimental target: CK2A1 (CK2α/β) (Homo sapiens, UniProt P68400)
# Sequence (P68400 whole entry, species assumed): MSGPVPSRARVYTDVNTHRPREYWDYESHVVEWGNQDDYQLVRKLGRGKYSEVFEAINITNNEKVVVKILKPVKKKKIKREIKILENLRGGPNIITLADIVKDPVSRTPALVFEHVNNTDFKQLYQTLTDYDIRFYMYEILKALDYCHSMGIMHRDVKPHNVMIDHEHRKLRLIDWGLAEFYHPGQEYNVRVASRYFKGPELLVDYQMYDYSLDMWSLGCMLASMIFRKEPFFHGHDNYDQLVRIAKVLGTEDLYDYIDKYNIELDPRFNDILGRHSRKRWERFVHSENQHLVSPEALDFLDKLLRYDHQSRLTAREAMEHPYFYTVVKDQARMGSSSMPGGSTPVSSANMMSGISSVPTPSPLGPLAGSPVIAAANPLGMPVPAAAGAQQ
# Sequence (P67870 whole entry partner, species assumed): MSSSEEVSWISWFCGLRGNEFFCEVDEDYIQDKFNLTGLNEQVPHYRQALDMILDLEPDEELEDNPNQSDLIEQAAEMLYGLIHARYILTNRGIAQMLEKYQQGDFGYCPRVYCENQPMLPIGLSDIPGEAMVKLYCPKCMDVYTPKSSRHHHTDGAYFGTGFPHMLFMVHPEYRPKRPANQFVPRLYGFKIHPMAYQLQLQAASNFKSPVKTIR
# Protocol description: CK2 kinase assay, CK2A1 (CK2α/β)
# Assay type: biochemical
# Condition label: Table A; read-out: CK2A1 (CK2α/β) (IC50)
Structures can show the parent of a compound that is named as a salt.
Measured property: IC50 (nM)

Answered examples (4):
>>> numeric_value("COC(=O)N[C@@H]1CCCN(c2cc(C#N)cc(Nc3nc(NC4CC4)c4ncc(C#N)n4n3)c2Cl)C1 [Example 41]")
0.94
>>> numeric_value("CCNC(=O)OCC1CN(c2cc(C#N)cc(Nc3nc(NC4CC4)c4ncc(C#N)n4n3)c2Cl)CCN1C (stereo not shown) [Example 703]")
1.82
>>> numeric_value("N#Cc1cc(Nc2nc(NC3CC3)c3ncc(C#N)n3n2)c(Cl)c(N2CCN(CC(O)CF)CC2=O)c1 (racemic) [Example 622]")
1.09
>>> numeric_value("COCCOCCNc1cc(C#N)cc(Nc2nc(NC3CC3)c3ncc(C#N)n3n2)c1Cl [Example 616]")
0.86

P = CCNc1nc(Nc2cc(C#N)cc(N3CC[C@@H](NC(=O)OC)[C@H](OC(=O)[C@@H](N)CCCN)C3)c2Cl)nn2c(C#N)cnc12 [Example 811, dihydrochloride]
Q = CN1CC2CC1CN2c1cc(C#N)cc(Nc2nc(NCC(F)(F)F)c3ncc(C#N)n3n2)c1Cl (racemic) [Example 430]
Input line: Which item exceeds the other in IC50, P or Q ? Identify your pick by its label.
Output line: P

---

# Experimental target: CK2A1 (CK2α/β) (Homo sapiens)
# Protocol description: CK2 kinase assay, CK2A1 (CK2α/β)
# Format: biochemical
# Condition label: Table A; read-out: CK2A1 (CK2α/β) (IC50)
Measured property: IC50 (nM)

Answered examples (4):
>>> numeric_value("CCNc1nc(Nc2cc(C#N)cc(N3CCN(CC4(C)COC4)CC3)c2Cl)nn2c(C#N)cnc12")
2.85
>>> numeric_value("CC(=O)N[C@@H]1CN(c2cc(C#N)cc(Nc3nc(NC4CC4)c4ncc(C#N)n4n3)c2Cl)C[C@H]1O (racemic)")
0.51
>>> numeric_value("CN1CC2CN(c3cc(C#N)cc(Nc4nc(NC5CC5)c5ncc(C#N)n5n4)c3Cl)CC2C1 (centres unmarked)")
2.46
>>> numeric_value("CC(=O)OC(C)(C)C(=O)N1CCC(c2cc(C#N)cc(Nc3nc(NC4CC4)c4ncc(C#N)n4n3)c2Cl)CC1")
0.51

a = N#Cc1cc(Nc2nc(NC3CC3)c3ncc(C#N)n3n2)c(Cl)c(N2CCN(C3CCS(=O)(=O)C3)CC2)c1 (centres unmarked)
b = CO[C@@H](C)C(=O)N1CC(N2CCN(c3cc(C#N)cc(Nc4nc(NC5CC5)c5ncc(C#N)n5n4)c3Cl)CC2)C1
c = CCNc1nc(Nc2ccc3c(c2)c(C#N)cn3C2CCN(C3CN(C(=O)OC(C)(C)C)C3)CC2)nn2c(C#N)cnc12
d = N#Cc1cc(Nc2nc(NC3CC3)c3ncc(C#N)n3n2)c(Cl)c(OC2CCN(C3COC3)C2)c1 (racemic)
Input line: Write the entries in order, lowest recorded IC50 first. Give the labels in the order requested.
Output line: d, c, b, a

---

# Experimental target: CK2A1 (CK2α/β) (Homo sapiens)
# Protocol description: CK2 kinase assay, CK2A1 (CK2α/β)
# Type: biochemical
# Condition label: Table A; read-out: CK2A1 (CK2α/β) (IC50)
pIC50: −log10 of the molar value.
Measured property: pIC50

Answered examples (3):
>>> numeric_value("N#Cc1cc(Nc2nc(NC3CC3)c3ncc(C#N)n3n2)c(Cl)c(N2CCC(N[C@H]3COC[C@@H]3O)CC2)c1 (racemic)")
9.17
>>> numeric_value("CCNc1nc(Nc2cc(C#N)cc(N3CC[C@@H](NC(=O)OCCOCCOCCOCCOCCOCCOC)[C@H](O)C3)c2Cl)nn2c(C#N)cnc12")
9.08
>>> numeric_value("N#Cc1cc(Nc2nc(NC3CC3)c3ncc(C#N)n3n2)c(Cl)c(C2CCN(C(=O)C3CC3)CC2)c1")
9.11

A = N#Cc1cc(Nc2nc(NC3CC3)c3ncc(C#N)n3n2)c(Cl)c(N2CC[C@@H]3[C@@H](CCN3[C@H]3CS(=O)(=O)C[C@@H]3O)C2)c1
B = CN1CCCN(c2cc(C#N)cc(Nc3nc(NC4CC4)c4ncc(C#N)n4n3)c2Cl)C(=O)C1
Input line: Record comparison, field pIC50: mark the lower of A and B . Identify your pick by its label.
Output line: B

P = N#Cc1cc(Nc2nc(NC3CC3)c3ncc(C#N)n3n2)c(Cl)c(N2CCC3CCNC3C2)c1 (racemic)
Q = N#Cc1cc(Nc2nc(NC3CC3)c3ncc(C#N)n3n2)c(Cl)c(N2CCN3C[C@H](O)C[C@H]3C2)c1 (racemic)
Input line: Record comparison, field pIC50: mark the lower of P and Q . Identify your pick by its label.
Output line: P
(P: 8.90, Q: 9.21)

---

# Experimental target: CK2A1 (CK2α/β) (Homo sapiens, UniProt P68400)
# Protocol description: CK2 kinase assay, CK2A1 (CK2α/β)
# Type: biochemical
# Condition label: Table A; read-out: CK2A1 (CK2α/β) (IC50)
pIC50: −log10 of the molar value.
Measured property: pIC50

>>> numeric_value("N#Cc1cc(Nc2nc(NC3CC3)c3ncc(C#N)n3n2)c(Cl)c([C@H]2CCC[C@H](NC[C@H]3CCCO3)C2)c1 [Example 728]")
8.86

A = N#Cc1cc(Nc2nc(NC3CC3)c3ncc(C#N)n3n2)c(Cl)c(C2CCN(C3CNC3)CC2)c1 [Example 318]
B = CCNc1nc(Nc2cc(C#N)cc(N3CC[C@@H](NC(=O)OC)C(=O)C3)c2Cl)nn2c(C#N)cnc12 [Example 740]
Input line: Which item exceeds the other in pIC50, A or B ? Identify your pick by its label.
Output line: A
(A: 9.11, B: 8.76)

---

# Experimental target: CK2A1 (CK2α/β) (Homo sapiens)
# Protocol description: CK2 kinase assay, CK2A1 (CK2α/β)
# Format: biochemical
# Condition label: Table A; read-out: CK2A1 (CK2α/β) (IC50)
Measured property: IC50 (nM)

Answered examples (10):
>>> numeric_value("N#Cc1cc(CN2CCC(O)CC2)c(Cl)c(Nc2nc(NC3CC3)c3ncc(C#N)n3n2)c1")
0.62
>>> numeric_value("N#Cc1cc(CNCC2CC2)c(Cl)c(Nc2nc(NC3CC3)c3ncc(C#N)n3n2)c1")
1.5
>>> numeric_value("CN1CCC2(CCN(c3cc(C#N)cc(Nc4nc(NC5CC5)c5ncc(C#N)n5n4)c3Cl)CC2)C1 (racemic)")
0.87
>>> numeric_value("CC(=O)N1CC(N2CCN(c3cc(C#N)cc(Nc4nc(NC5CC5)c5ncc(C#N)n5n4)c3Cl)CC2)C1")
0.86
>>> numeric_value("CC(=O)N1CCN(c2cc(C#N)cc(Nc3nc(NC4CC4)c4ncc(C#N)n4n3)c2Cl)CC1")
0.57
>>> numeric_value("CC(=O)NCC(=O)N1CC(N2CCN(c3cc(C#N)cc(Nc4nc(NC5CC5)c5ncc(C#N)n5n4)c3Cl)CC2)C1")
0.64
>>> numeric_value("COCCNCC(O)c1cc(C#N)cc(Nc2nc(NC3CC3)c3ncc(C#N)n3n2)c1Cl (centres unmarked)")
0.95
>>> numeric_value("CN1CCN(CCCc2cc(C#N)cc(Nc3nc(NC4CC4)c4ncc(C#N)n4n3)c2Cl)CC1")
0.72
>>> numeric_value("N#Cc1cc(Nc2nc(NC3CC3)c3ncc(C#N)n3n2)c(OCCN2CCOCC2)cc1F")
0.61
>>> numeric_value("COc1ccc(CN2CCN(c3cc(C#N)cc(Nc4nc(NC5CC5)c5ncc(C#N)n5n4)c3Cl)C(=O)C2)cc1")
1.1

I = N#Cc1cc(Nc2nc(NC3CC3)c3ncc(C#N)n3n2)c(Cl)c(N2CCN(CC3CNCCO3)CC2)c1 (centres unmarked)
II = CCNc1nc(Nc2cc(C#N)cc(N3CCN(C4CN(CC(O)CF)C4)CC3)c2Cl)nn2c(C#N)cnc12 (centres unmarked)
Input line: Record comparison, field IC50: mark the lower of I and II . Identify your pick by its label.
Output line: I
(I: 0.62 nM, II: 1.58 nM)

I = C[C@@H](N)C(=O)N1CCC(c2cc(C#N)cc(Nc3nc(NC4CC4)c4ncc(C#N)n4n3)c2Cl)CC1
II = CCNc1nc(Nc2ccc3c(c2)c(C#N)cn3C2CCN(C3CN(C4COC4)C3)CC2)nn2c(C#N)cnc12
Input line: Which item exceeds the other in IC50, I or II ? Identify your pick by its label.
Output line: II

A = COC(=O)N[C@@H]1CN(c2cc(C#N)cc(Nc3nc(NC4CC4)c4ncc(C#N)n4n3)c2Cl)CC[C@H]1O (racemic)
B = CN[C@@H]1CCN(c2cc(C#N)cc(Nc3nc(NC4CC4)c4ncc(C#N)n4n3)c2Cl)C[C@H]1O (racemic)
Input line: Which item exceeds the other in IC50, A or B ? Identify your pick by its label.
Output line: B
